Numbers sourced from paper PMC3042124.

List of IC50 tested on β5 subunit of the constitutive proteasome (Homo sapiens, UniProt P20618+P28074).
Please respond with the number in nM and leave the unit unwritten.

Compound	IC50 / nM
COc1ccc(C[C@H](NC(=O)Cc2ccc3ccccc3c2)C(=O)N[C@@H](Cc2ccccc2)C(=O)N[C@H](/C=C/S(=O)(=O)c2ccc(O)cc2)CC(C)C)cc1 [IIa]	70

Now for another entry.
Hi! What's the reported IC50 for COc1ccc(C[C@H](NC(=O)Cc2ccc3ccccc3c2)C(=O)N[C@@H](Cc2ccccc2)C(=O)N[C@H](/C=C/S(C)(=O)=O)CC(C)C)cc1 [IIb] on β5 subunit of the constitutive proteasome (Homo sapiens, UniProt P20618+P28074)?
110
